Data credit: ChEMBL document CHEMBL4251568

- Protocol Summary: Cytotoxicity against human SH-SY5Y cells assessed as cell viability after 24 hrs by MTT assay
- Type: cell-based
- Conditions Used: read-out: Activity
Experimental Endpoint: viability at 24 h (%)

# Molecule, Experimental Endpoint, Unit, Experimental Result
data = [
    ("CCOc1ccc(Nc2ccc(C(=C3C=CC(=[N+](CC)Cc4cccc(S(=O)(=O)[O-])c4)C=C3)c3ccc(N(CC)Cc4cccc(S(=O)(=O)[O-])c4)cc3)cc2)cc1.[Na+]", "viability at 24 h", "%", 99),
    ("CCOc1ccc(Nc2ccc(/C(=C3C=C/C(=[N+](/CC)Cc4cccc(S(=O)(=O)[O-])c4)C=C/3C)c3ccc(N(CC)Cc4cccc(S(=O)(=O)[O-])c4)cc3C)cc2)cc1.[Na+] [BRILLIANT BLUE G]", "viability at 24 h", "%", 19),
]
